# reported IC50; entries follow
# tested on: Carboxy-terminal domain RNA polymerase II polypeptide A small phosphatase 1 (Homo sapiens, UniProt Q9GZU7)
# Sequence (Q9GZU7 whole entry, the tested form may be a part): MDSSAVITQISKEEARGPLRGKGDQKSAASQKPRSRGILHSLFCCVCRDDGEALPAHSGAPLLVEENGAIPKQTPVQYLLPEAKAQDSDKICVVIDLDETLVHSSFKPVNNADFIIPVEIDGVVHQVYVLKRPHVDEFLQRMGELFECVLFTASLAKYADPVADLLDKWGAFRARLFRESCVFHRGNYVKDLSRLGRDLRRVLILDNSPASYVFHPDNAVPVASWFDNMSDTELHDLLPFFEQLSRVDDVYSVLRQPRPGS
# run description: inhibitors of CTDSP1, concentration-response testing, biochemical assay, absorbance-based, actives from ultra-high-throughput screening (AID 540297)
# Type: functional
Activity calls are given as the source filed them.

Example entries begin here.
{"columns": ["molecule", "IC50"],
 "data": [
  ["CCOc1ccccc1NC(=O)CCS(=O)(=O)c1ccc(Br)cc1", "4.09 µM (active)"],
  ["Fc1ccc(CSc2nc3cc(Br)c[nH]c-3n2)cc1", "9.63 µM (active)"],
  ["CCN(c1ccccc1)S(=O)(=O)c1cc(C(=O)OC(C)C(=O)Nc2ccc3c(c2)OCCO3)ccc1C (centres undefined)", "4.38 µM (active)"]
]}

Here is another molecule to look at.
Challenge: For the molecule shown here, `CCOc1cc(/C=C2\SC(=O)N(CC(=O)Nc3ccccc3F)C2=O)cc([N+](=O)[O-])c1O` , give the reported IC50.
Response given: 9.89 µM (active)

----------
# tested on: Protein skinhead-1 (Caenorhabditis elegans)
# Sequence (P34707 whole entry): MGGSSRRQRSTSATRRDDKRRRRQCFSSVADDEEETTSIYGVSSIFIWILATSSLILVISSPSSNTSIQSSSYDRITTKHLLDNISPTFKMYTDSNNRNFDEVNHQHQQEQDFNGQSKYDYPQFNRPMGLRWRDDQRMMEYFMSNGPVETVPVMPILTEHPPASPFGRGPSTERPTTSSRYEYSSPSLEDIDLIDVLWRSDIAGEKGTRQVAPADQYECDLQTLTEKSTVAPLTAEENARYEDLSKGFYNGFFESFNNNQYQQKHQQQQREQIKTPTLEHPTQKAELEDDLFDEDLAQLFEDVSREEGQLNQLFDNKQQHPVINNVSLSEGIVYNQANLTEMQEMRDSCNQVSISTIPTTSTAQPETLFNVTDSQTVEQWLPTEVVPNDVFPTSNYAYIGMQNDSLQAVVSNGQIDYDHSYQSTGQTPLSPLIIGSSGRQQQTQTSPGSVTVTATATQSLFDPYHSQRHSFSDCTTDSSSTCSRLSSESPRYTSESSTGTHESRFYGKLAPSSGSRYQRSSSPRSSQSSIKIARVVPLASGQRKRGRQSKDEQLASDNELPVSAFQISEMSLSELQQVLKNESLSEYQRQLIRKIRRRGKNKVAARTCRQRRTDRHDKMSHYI
# Format: functional
Calls of active or inactive are those of the source.
Hello, when you answer, please use one of the following outcomes: Y = active, N = inactive

Consider the worked cases shown below.
{"columns": ["compound", "discrete label"],
 "data": [
  ["CCC(=O)N1c2ccc(S(=O)(=O)CCC(=O)NCc3cccs3)cc2CC1C (stereo not drawn)", "N"],
  ["Clc1ccc(C=Cc2ccccn2)c(Cl)c1", "Y"]
]}

Challenge: Fill in: this test's call for `COc1ccccc1NC(=O)CN1CCN(C2c3ccccc3-c3ccccc32)CC1` is ___
Response given: N

Challenge: Fill in: this test's call for `Cc1cc2ccccc2n1CCNC(=O)c1cccs1` is ___
Response given: N

Challenge: Fill in: this test's call for Cc1cc(C)nc(N2C(=O)CC(C(C)c3ccccc3)C2=O)n1 (stereo not drawn) is ___
Response given: N

Challenge: Fill in: this test's call for `Cc1cc2ccccc2n1CCNC(=O)c1ccccc1` is ___
Response given: N

Challenge: Fill in: this test's call for NC(=O)CC(NC(=O)Cc1cccc2ccccc12)c1ccc(N2CCC(N3CCCCC3)CC2)c([N+](=O)[O-])c1 (stereo not drawn) is ___
Response given: N

Challenge: Fill in: this test's call for `CN(C)S(=O)(=O)c1ccc(N2CCCC2)c(C(=O)NCc2cccc(C(F)(F)F)c2)c1` is ___
Response given: N
